# target.desc: T1, Ras-GTPase-activating protein-binding protein 1 (G3BP1) NTF2 domain (human, UniProt Q13283 11-133)
# T1 construct: also called G3BP1 NTF1
# experiment.summary: fluorescence polarisation
# condition.set: both partners purified
Where no end group is shown, it is not given here.
assay.metric: pKd
pKd field: float, defined as -log10 of concentration (mol/L).

Name the reported pKd value associated with the binder APRITFGGPSDS (also: FITC label, position not given here) [FITC-N_SARS-CoV-2]
5.60

The reported numbers originate from paper PMC11369174.
